- Test system: RPMI-8226
- assay method text: NCI tumour cell line growth inhibition, 48 h
Calls of active or inactive are those of the source. No stated cut-off is given here; in the data, active = GI50 up to about 1.1 µM and inactive = higher.
Recorded GI50 for the following compounds

- compound: "COCCOCOC(CCCCO)c1cc(C)c(O[Si](C)(C)C(C)(C)C)c(C)c1 (stereo unspecified)"
  GI50: "2.08 µM (inactive)"
- compound: "C#CCN(N=O)C(=O)NC(CCCCNC(=O)OCc1ccccc1)C(=O)OCc1ccccc1 (stereo unspecified)"
  GI50: "18.7 µM (inactive)"
- compound: "C[N+]1(Cc2ccc(Cl)c(Cl)c2)CCCC1C1CCCN(Cc2ccc(Cl)c(Cl)c2)C1 (stereo unspecified)"
  GI50: "> 100 µM (inactive)"
- compound: "NC(Cc1ccc(O)c(O)c1)P(=O)(O)O (stereo unspecified)"
  GI50: "92.7 µM (inactive)"
- compound: "COc1ccc2[nH]cc(/C=C(/C)c3ccncc3)c2c1"
  GI50: "5.89 µM (inactive)"
- compound: "CC(C)(/C=N\\O)NO"
  GI50: "> 10 µM (inactive)"
- compound: "CN(C)CCNC(=O)c1cccc2cc3c(Cl)cccc3nc12"
  GI50: "1.64 µM (inactive)"
- compound: "NC(=O)c1cc2ccc(O)cc2o/c1=N/NC(=O)c1ccccc1"
  GI50: "77.3 µM (inactive)"
- compound: "O=C(Sc1c(-c2ccccc2)c(=O)n(-c2ccccc2)c(=S)n1-c1ccccc1)c1ccco1"
  GI50: "33.8 µM (inactive)"
- compound: "CCCN1CC=CCC1"
  GI50: "> 100 µM (inactive)"
- compound: "CSCC[C@@H]1C(=O)N(C)[C@H](C(C)(C)C)N1C(=O)c1ccccc1"
  GI50: "> 100 µM (inactive)"

====

- Tested on: RXF 393
- assay method text: NCI tumour cell line growth inhibition, 48 h
Calls of active or inactive are those of the source. Cut-off read from the data, not from the text of the source: active = GI50 up to about 1.1 µM and inactive = higher.
Labels: yes for active, no for inactive

- compound: "C(=N\\c1ccc(-c2cc(-c3ccccc3)nc3ccc4ccccc4c23)cc1)/c1ccccc1"
  class assignment: "no"
- compound: "O=C(CC(=O)C1=CNc2ccccc2S1)C(=O)Nc1ccc(Cl)cc1"
  class assignment: "no"
- compound: "CN1CCC[N+](C)=C1c1ccccc1"
  class assignment: "no"
- compound: "CCC1(O)C[C@H]2CN(CCCc3c([nH]c4ccccc34)[C@@](C(=O)OC)(c3cc4c(cc3OC)N(C)C3[C@](O)(C(=O)OC)[C@H](OC(C)=O)[C@]5(CC)C=CCN6CC[C@]43[C@H]65)C2)C1 (stereo not given in full)"
  class assignment: "yes"
- compound: "c1ccc([P+](c2ccccc2)(c2ccccc2)C2Sc3ccccc3S2)cc1"
  class assignment: "no"
- compound: "COc1ccc(C2C3CCCC(C3=O)C(c3ccc(OC)cc3)N2N=O)cc1 (stereo not given)"
  class assignment: "no"
- compound: "O=C1c2c(ccc3c2CCCC3)CC1Cc1ccc2c(c1)CCCC2 (stereo not given)"
  class assignment: "no"
- compound: "CN(NC(=O)c1ccco1)C1=NCCN1"
  class assignment: "no"
- compound: "NC1=NC2=c3ccccc3=C(c3cnccn3)C2(c2cnccn2)c2ccccc21 (stereo not given)"
  class assignment: "no"
- compound: "Cc1cc(Br)c(N2C3=C(CC4=C2CCCC4=O)C(=O)CCC3)c(Br)c1"
  class assignment: "no"
